- TEST: Multiple oral dosing for 14 days, pharmacokinetics in HCV infected subjects (Example 3)
- Format: in vivo, human
- MEASUREMENT CONTEXT: human, plasma, oral, 200 mg, Day 14, 200 mg BID, mean; read-out: AUC(0-12 hr)
MEASUREMENT KIND: AUC(0-t) (ng·h/mL)
Provide the reading as a plain figure in ng·h/mL.

Which AUC(0-t) is listed for CC(C)(C)NC(=O)N[C@H](C(=O)N1C[C@H]2[C@@H]([C@H]1C(=O)NC(CC1CCC1)C(=O)C(N)=O)C2(C)C)C(C)(C)C (mixture of isomers) [Formula Ia] ?
1390
